Target: Fyn (UniProt P06241)
Sequence (P06241 whole entry, looked up): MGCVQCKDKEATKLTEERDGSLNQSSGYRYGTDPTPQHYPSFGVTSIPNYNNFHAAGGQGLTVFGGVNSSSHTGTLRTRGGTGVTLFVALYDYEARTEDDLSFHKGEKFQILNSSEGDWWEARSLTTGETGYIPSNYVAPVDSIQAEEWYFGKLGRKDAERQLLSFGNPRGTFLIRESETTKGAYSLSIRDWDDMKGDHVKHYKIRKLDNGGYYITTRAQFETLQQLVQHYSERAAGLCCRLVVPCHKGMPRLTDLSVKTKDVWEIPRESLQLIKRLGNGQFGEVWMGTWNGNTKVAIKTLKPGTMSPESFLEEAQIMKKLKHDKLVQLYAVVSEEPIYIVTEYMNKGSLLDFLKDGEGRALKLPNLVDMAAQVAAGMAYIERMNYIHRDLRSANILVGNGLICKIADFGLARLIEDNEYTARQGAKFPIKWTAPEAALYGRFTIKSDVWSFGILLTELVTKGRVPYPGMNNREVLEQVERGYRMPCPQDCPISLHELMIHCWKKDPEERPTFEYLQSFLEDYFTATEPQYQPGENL
Test: phosphorylation enrichment, bacterial display (enrichment ratio); higher = better substrate or ligand; peptides without Tyr show the background;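 further: 11-residue human phosphosite peptides and single-mutation variants displayed on the E. coli surface, counted by deep sequencing, each peptide's frequency after selection divided by its frequency in the unselected input library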;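 further: frequency after pTyr selection over input frequency; kinase dosed for 20-30% of maximal phosphorylation in three min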
Note to self: values exactly at 0.6 are yes (1). So phosphorylation enrichment at or above 0.6 is yes (1), below is no (0).

>>> class_label("FETSHYPASPD [CTNND2_Y1217_YF]")
"no (0)"
>>> class_label("PPSGEYFGQCG [TRIP6_Y275]")
"no (0)"
>>> class_label("LTGIAYGLPHW [SLC22A14_Y291_S292G]")
"no (0)"
>>> class_label("PVKDGYQMAQP [CSF1R_Y873_L868P]")
"no (0)"
>>> class_label("LRGVIYVILRK [PMP22_Y153_S149R]")
"yes (1)"
>>> class_label("TNIKRYHIAKG [HARS1_Y150_V155G]")
"no (0)"
>>> class_label("FGLQAYTKVKT [ALDH2_Y502_E504K_YF]")
"no (0)"
>>> class_label("GPQSLYNGLVA [UCP2_Y79_R76Q]")
"yes (1)"
>>> class_label("TTSQPYRRLCS [USH2A_Y534_C536R]")
"no (0)"
>>> class_label("HLATEYVFSDF [PANX1_Y10_Q5H]")
"yes (1)"
>>> class_label("FSGDFYRIQGR [DDR2_Y741_YF]")
"no (0)"
>>> class_label("YDGKDYIALKE [HLA-A_Y147_N151K]")
"no (0)"
>>> class_label("METKGYQSLPE [NR3C2_Y6_H7Q]")
"no (0)"
>>> class_label("ENAGFYFRVSA")
"no (0)"
>>> class_label("KRLFAYKMLMA [TMC2_Y209_Q205R_YF]")
"no (0)"
>>> class_label("RSDEDYLFREE [POR_Y573_YF]")
"yes (1)"

----------
Target: Hck (UniProt P08631)
Sequence (P08631 whole entry, looked up): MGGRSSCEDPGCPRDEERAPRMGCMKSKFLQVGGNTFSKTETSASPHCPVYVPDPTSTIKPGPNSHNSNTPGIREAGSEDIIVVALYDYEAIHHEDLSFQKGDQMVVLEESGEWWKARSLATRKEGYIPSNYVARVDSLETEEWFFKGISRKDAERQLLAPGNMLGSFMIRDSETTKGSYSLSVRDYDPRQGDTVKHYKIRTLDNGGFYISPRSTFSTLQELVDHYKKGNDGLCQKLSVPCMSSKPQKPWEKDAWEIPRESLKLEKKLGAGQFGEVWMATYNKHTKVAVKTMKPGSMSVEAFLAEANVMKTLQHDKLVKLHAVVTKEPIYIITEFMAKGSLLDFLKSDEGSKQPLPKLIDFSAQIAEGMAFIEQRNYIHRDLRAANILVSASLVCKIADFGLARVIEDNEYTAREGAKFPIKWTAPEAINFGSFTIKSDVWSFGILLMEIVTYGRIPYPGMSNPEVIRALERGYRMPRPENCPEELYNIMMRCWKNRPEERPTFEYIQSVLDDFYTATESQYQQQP
Experiment: phosphorylation enrichment, bacterial display (enrichment ratio); higher = better substrate or ligand; peptides without Tyr show the background
Note to self: values exactly at 0.6 are yes. So phosphorylation enrichment at or above 0.6 is yes, below is no.

>>> class_label("ACEVLYNIAFM [NCF2_Y125]")
"yes"
>>> class_label("FDDIAHIRKTL [PIK3CA_Y1021_Y1021H]")
"no"
>>> class_label("LLNAIYLSAKR [SERPING1_Y294_W299R]")
"yes"
>>> class_label("PSDSGYSFETI [MAP1B_Y1921_YF]")
"yes"
>>> class_label("NTTIHYNYMCN [TP53_Y234_C229N]")
"no"
>>> class_label("SVVVPYEPPEG [TP53_Y220_V225G]")
"no"

----------
Below, each entry is listed alongside its reported phosphorylation enrichment.
Target: MERTK (UniProt Q12866)
Sequence (Q12866 whole entry, looked up): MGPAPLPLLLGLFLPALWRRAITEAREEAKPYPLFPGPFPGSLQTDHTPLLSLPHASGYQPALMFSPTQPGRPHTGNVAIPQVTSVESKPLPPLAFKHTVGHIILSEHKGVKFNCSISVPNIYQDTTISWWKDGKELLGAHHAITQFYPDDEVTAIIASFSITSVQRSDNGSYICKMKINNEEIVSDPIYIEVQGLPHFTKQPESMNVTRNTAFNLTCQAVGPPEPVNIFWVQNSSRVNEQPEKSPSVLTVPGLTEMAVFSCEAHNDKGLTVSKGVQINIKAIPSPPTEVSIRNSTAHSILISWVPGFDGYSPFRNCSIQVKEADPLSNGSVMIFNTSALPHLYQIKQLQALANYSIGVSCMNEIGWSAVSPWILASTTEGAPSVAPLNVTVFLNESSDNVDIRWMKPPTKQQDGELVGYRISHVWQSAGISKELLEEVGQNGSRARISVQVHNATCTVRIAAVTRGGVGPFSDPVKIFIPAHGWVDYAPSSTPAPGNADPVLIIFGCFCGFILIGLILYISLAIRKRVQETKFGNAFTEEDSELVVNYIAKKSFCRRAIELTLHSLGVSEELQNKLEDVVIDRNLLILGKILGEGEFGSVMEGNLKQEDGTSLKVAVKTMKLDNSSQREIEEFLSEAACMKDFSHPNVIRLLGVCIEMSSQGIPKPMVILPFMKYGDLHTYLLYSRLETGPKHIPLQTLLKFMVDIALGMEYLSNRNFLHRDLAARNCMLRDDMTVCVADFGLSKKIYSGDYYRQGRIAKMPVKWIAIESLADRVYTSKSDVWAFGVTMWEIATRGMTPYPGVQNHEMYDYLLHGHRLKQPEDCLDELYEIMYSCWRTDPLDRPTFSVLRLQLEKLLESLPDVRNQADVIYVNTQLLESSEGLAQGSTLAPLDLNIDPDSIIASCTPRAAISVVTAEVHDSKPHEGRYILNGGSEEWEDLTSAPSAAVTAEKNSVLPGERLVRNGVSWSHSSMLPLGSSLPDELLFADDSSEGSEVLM
Assay: phosphorylation enrichment, bacterial display (enrichment ratio); higher = better substrate or ligand; peptides without Tyr show the background
endpoint: phosphorylation enrichment

>>> number("TYEYKYPEGSS [TGM4_Y440]")
0.414
>>> number("ATGGFYSYGGG [KRT24_Y120]")
11.6
>>> number("YAANYYKLLGN [ROR2_Y646_D644N]")
0.832
>>> number("FHKALYTVRTY [PDE6C_Y266_S270T]")
0.519
>>> number("FLAATYPTVGQ [NF1_Y2508_YF]")
0.396
>>> number("DENWFYTQAAS [RPS19_Y54_R56Q]")
0.395
>>> number("EERNPYFSSAR [MCCC2_Y520_G517R_YF]")
0.407
>>> number("VKPENYRRLDV [VHL_Y175_I180V]")
0.465
>>> number("AKKVFYVIETR [SHH_Y253]")
0.361
>>> number("WHHTFYNEPRV [ACTA1_Y93_L96P]")
0.59
>>> number("TSHKGYVAFLE [CARD9_Y76_G72S]")
0.38
